# System: K4 kissing-loop RNA reporter;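 note: bound reporter read as fluorescence of individual clusters on recovered sequencing chips by microscopy, with normalized cluster intensities fitted with a binding model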
# assay name: apparent KD of K4 kissing-loop reporter; higher = weaker reporter binding
# reported conditions: Eterna round: R107; input ligand: FMN 200 uM
Each record here notes measured apparent KD of K4 kissing-loop reporter.

[
  {
    "residue string": "CGUGUAAUGUGGAGAUUUGAAAAGGCGCAUCGAGGACCGGUACGGCCGCCACUCGCUACGAGCUAGUGAUGUUGGCUCGUUCGGA [theeternabot_sameState_KL_Trp_A_23]",
    "target under test": "K4 kissing-loop RNA reporter",
    "recorded value": "238 nM"
  },
  {
    "residue string": "UAUAUAGUGACGGCCGCCACUAUAUUAAUGUUUAGGUUAGAGUGAUGUUUUGAUUAAUAUUUUUAUAGGACCGGGUUAUAUGUUA [xerrmullin]",
    "target under test": "K4 kissing-loop RNA reporter",
    "recorded value": "563 nM"
  }
]

--- query ---
apparent KD of K4 kissing-loop reporter in this record for AAGCAGUCACUCGAAGCCAUCGAAGAUGGUCGAGGACCGGUACGGCCGCCACUCGGAGUGAUGUUCCGAAGACUGCAAAAUAAAA [#SwitchBubble 11] : 275 nM

* * *

# System: MS2 coat protein
# assay name: apparent KD of MS2 coat protein; higher = weaker reporter binding
# reported conditions: Eterna round: R107; input ligand: theophylline 20 uM
Short version: apparent KD of MS2 coat protein at least 100 nM is met, less is not met.

These solved cases illustrate the format of a correct answer.
[
  {
    "residue string": "ACCAGGGUCUGAAGGAGCGCGAUUACAUGAGGAUCACCCAUGUGAAAUGGUAGAUGAUACUCGCAGGUAGGUCGCAGUACUUGGA [Same State Arginine B GF 14]",
    "class label": "met"
  },
  {
    "residue string": "GGACUAACCUGAAGGAGCGACGCGCAGAAACUGCAAAUUCCUCCACACGAGGAUCACCCGUGUCAGGUAGGUCGCAGGUUAGUCG [ArgBX 28]",
    "class label": "not met"
  },
  {
    "residue string": "AUGUCGUUGAAUAUAGCGGCUUGGAGUGAUACCAGUAUGAUCCAAUACCCUUGGCAGCAUUACAUGAGGAUCACCCAUGUUCCAG [SSTheo A #24]",
    "class label": "not met"
  },
  {
    "residue string": "AUUCAUGGAAACAUGAGAUAUCCUACCGGUCGAGGACCGGUACGGCCGCCACUCGGUUGGUGGCACAUGAGGAUCACCCAUGUUA [SS Tryp A #12]",
    "class label": "met"
  },
  {
    "residue string": "CUACAUGGGCUCGAUACCAGUCAGCUCUCGCGUCUCUCAGACAUGAGGAUCACCCAUGUUGACCCUUGGCAGCGACGAUGUAGGC [theeternabot_exclusion_MS2_Theo_B_46]",
    "class label": "met"
  },
  {
    "residue string": "UCUGGGUCCGCAAGGACCUGGAGUUGCGAUACCAGCACGGUAACGUGCCCUUGGCAGCGCACAUGAGGAUCACCCAUGUGGUGUU [#1 Exclusion - Theophylline A Attempt #17 (HarryS)]",
    "class label": "met"
  },
  {
    "residue string": "CACGCACGAUCGGCCGCCACUCGUGUAGCUUACAUGAGGAUCACCCAUGUAUGUUCAUUCAUAUAGAGGACCGGGAUCGUGCGUG [#05 Same State - Tryptophan B]",
    "class label": "not met"
  },
  {
    "residue string": "AAGGUGAUCCCAGAUACCAGCUUAACAUGAGGAUCACCCAUGUAUGGGACGAAAGUCCCGGGCCCUUGGCAGCUGGGUUGCCAAG [SSTheo B #16]",
    "class label": "met"
  }
]

INPUT: State whether the measured apparent KD of MS2 coat protein reaches 100 nM, counting equality as reaching it, for UGAUGGUGCUGAAGGAGCGUGUAAGAACAAGAACAUGAGGAUCACCCAUGUAUUAAUUUAACGCAGGUAGGUCGCGGUGUUAUUG [11.M]
OUTPUT: not met

INPUT: Could you verify whether the entry AUGAAGCUAAGAGAUACCAGUGACCACAGAUACAUGAGGAUCACCCAUGUCUCAAAUUGUCACCCUUGGCAGCUCACUAUCGAAG [theeternabot_sameState_MS2_Theo_B_29] shows apparent KD of MS2 coat protein of no less than 100 nM?
OUTPUT: not met

INPUT: Determine whether measured apparent KD of MS2 coat protein meets or exceeds 100 nM for UCAAAUGCGGCGGCCGCCACUCGCGGAUAACGAUAGCUUAACAUGAGGAUCACCCAUGUGUCAUGGAGGACCGGGCCCAUAACAU [ttmullin]
OUTPUT: not met
